Test system: HCC-2998 colon
Procedure summary: NCI tumour cell line growth inhibition, 48 h
Reported metric: GI50

Answered examples (4):
CCCCCCCCCCCCCCCC[N+](C)(C)C :: 1.71 µM
CC(=O)c1ccc(NCn2nc(-c3ccccc3O)oc2=S)cc1 :: 27.8 µM
CNC1=C(Br)C(=O)C2=C(C1=O)C1C3=C(C(=O)C=CC3=O)C2c2ccccc21 (stereo not given) :: 3.74 µM
O=C(/C=C/c1ccccc1)c1ccc(O)c(CN2CCN(c3cc4c(cc3F)c(=O)c(C(=O)O)cn4C3CC3)CC2)c1 :: 3.11 µM

Ask: Consider the compound COc1cccc2c1C(=O)c1c(O)c3c(c(O)c1C2=O)C[C@@](O)(C(=O)COC(=O)c1cccnc1)C[C@@H]3OC1CC(N)C(O)C(C)O1 (stereo not given in full) . State its measured GI50.
Reply: 0.454 µM

---

Test system: SF-295 CNS
Procedure summary: NCI tumour cell line growth inhibition, 48 h; in the data active = GI50 below about 0.43 µM; inactive = the rest
Please reply with one of these outcomes: TRUE = active, FALSE = inactive

Cc1ccc2nc(NC(=O)CSC(=S)N3CCN(Cc4ccccc4)CC3)sc2c1 :: FALSE
COc1cc2c(cc1O)CCN[C@@]21CS[C@H]2c3c(OC(C)=O)c(C)c4c(c3C(COC1=O)N1C2C2c3c(cc(C)c(OC)c3O)CC([C@@H]1O)N2C)OCO4 (some centres undefined) :: TRUE
COc1cc(C)c(N(C)C(=O)CN(C)C)cc1Nc1nc(Nc2cccc(F)c2C(N)=O)c2cc[nH]c2n1 :: FALSE
CC(=O)c1ccc(NCn2nc(-c3ccccc3O)oc2=S)cc1 :: FALSE

Ask: How was `CCCCCn1ncc(-c2c(O)c(O)cc3c(O)c(-c4c(C)cc5c(-c6cnn(CCCCC)n6)c(O)c(O)cc5c4O)c(C)cc23)n1` classified in this test?
Reply: TRUE

Ask: How was `CC(=O)O[C@H]1CC[C@]2(C)[C@H]3C(=O)C=C4[C@@H]5C[C@](C)(C(=O)N6CCCNCC6)CC[C@]5(C)CC[C@@]4(C)[C@]3(C)CC[C@H]2C1(C)C` classified in this test?
Reply: FALSE

Ask: How was `COc1ccc(OC)c(-c2cn3nc(-c4c[nH]c5ccc(Br)cc45)sc3n2)c1` classified in this test?
Reply: FALSE

Ask: How was `CN([N-]C(=O)CC(=O)[N-]N(C)C(=S)c1ccccc1)C(=S)c1ccccc1.[Cu+2]` classified in this test?
Reply: TRUE

Ask: How was COc1cccc2c1C(=O)c1c(O)c3c(c(O)c1C2=O)C[C@@](O)(C(=O)COC(=O)c1cccnc1)C[C@@H]3OC1CC(N)C(O)C(C)O1 (some centres undefined) classified in this test?
Reply: TRUE

Ask: How was `CCCCn1c(=O)c(/C=C/C(=O)/C=C/c2ccc(O)c(OC)c2)cc2ccc(Cl)cc21` classified in this test?
Reply: FALSE

Ask: How was `C=C(C)[C@@H]1CC[C@]2(C)[C@H](CC=C3[C@@H]4CC(C)(C)CC[C@]4(C(=O)OC)CC[C@]32C)[C@@]1(C)CC/C(N)=N/O` classified in this test?
Reply: FALSE

Ask: How was `CO/N=C(\COc1ccc2c(=O)cc(-c3ccccc3)oc2c1)c1ccc(OC)cc1` classified in this test?
Reply: FALSE

Ask: How was `COc1cc2c3c(n(CCCn4cccn4)c(=O)c2cc1OC)-c1cc2c(cc1C3=O)OCO2` classified in this test?
Reply: FALSE

Ask: How was `COc1cc(/C=C\c2cc(/C=C\c3ccc(O)c(OC)c3)n(C(=O)Nc3ccc(C(F)(F)F)cc3)n2)ccc1O` classified in this test?
Reply: FALSE
